Reference for the values: the supplement of paper PMC7877785

assay: self-splicing fitness, log relative to wild type (ln ratio); higher = more splicing; Tetrahymena group I intron in knt gene, E. coli kanamycin selection, DiMSum; sequences stand for … in CUCUCU…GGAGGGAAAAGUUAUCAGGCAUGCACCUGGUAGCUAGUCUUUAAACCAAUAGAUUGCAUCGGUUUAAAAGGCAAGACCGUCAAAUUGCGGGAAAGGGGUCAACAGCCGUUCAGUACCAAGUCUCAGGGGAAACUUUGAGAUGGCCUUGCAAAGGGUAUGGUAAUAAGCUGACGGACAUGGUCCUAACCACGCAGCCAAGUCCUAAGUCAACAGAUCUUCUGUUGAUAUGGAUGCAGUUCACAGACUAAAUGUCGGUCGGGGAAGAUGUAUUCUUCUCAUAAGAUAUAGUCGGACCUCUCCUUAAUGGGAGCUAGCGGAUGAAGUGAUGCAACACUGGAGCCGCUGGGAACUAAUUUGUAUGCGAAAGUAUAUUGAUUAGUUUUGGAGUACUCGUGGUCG; settings: 30 °C;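 note: selection with 25 µg/mL kanamycin versus none on LB agar overnight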
Respond with criterion met for self-splicing fitness (ln) values of -2 and above, criterion not met for values below.

Some solved entries appear below for comparison.
State whether the measured self-splicing fitness (ln) reaches -2, counting equality as reaching it, for CCCAAGCAAUAUUACGAUUU
criterion not met

Repeat with UAACAGCAAUAUUACGUUGA
criterion not met

Repeat with CAUCAGCAAUAUUACGACUG
criterion met

Repeat with GAUGAGCAAUAUUACGCUCU
criterion not met

---
State whether the measured self-splicing fitness (ln) reaches -2, counting equality as reaching it, for UCGUAGCAAUAUUACGUUGC
criterion not met
